Assay: Bioavailability in rat at 3 mg/kg, iv
Type: ADME, organism-based
Conditions: in vivo
READOUT_NAME: bioavailability (%)

(P) FC(F)(F)c1ccc(Nc2ncnc3cc(-c4ncccc4C(F)(F)F)ccc23)cc1 [NGD-8243]
(Q) C[C@@H]1CN(c2ncccc2C(F)(F)F)CCN1C(=O)Nc1ccc(C(F)(F)F)cc1
Which entry shows the lesser value of bioavailability here, P or Q ? To answer, give the label that identifies your chosen option. Q
(Q: 27%, P: 99%)

* * *

Target: Transient receptor potential cation channel subfamily V member 1 (Homo sapiens, UniProt Q8NER1)
Sequence (Q8NER1 whole entry): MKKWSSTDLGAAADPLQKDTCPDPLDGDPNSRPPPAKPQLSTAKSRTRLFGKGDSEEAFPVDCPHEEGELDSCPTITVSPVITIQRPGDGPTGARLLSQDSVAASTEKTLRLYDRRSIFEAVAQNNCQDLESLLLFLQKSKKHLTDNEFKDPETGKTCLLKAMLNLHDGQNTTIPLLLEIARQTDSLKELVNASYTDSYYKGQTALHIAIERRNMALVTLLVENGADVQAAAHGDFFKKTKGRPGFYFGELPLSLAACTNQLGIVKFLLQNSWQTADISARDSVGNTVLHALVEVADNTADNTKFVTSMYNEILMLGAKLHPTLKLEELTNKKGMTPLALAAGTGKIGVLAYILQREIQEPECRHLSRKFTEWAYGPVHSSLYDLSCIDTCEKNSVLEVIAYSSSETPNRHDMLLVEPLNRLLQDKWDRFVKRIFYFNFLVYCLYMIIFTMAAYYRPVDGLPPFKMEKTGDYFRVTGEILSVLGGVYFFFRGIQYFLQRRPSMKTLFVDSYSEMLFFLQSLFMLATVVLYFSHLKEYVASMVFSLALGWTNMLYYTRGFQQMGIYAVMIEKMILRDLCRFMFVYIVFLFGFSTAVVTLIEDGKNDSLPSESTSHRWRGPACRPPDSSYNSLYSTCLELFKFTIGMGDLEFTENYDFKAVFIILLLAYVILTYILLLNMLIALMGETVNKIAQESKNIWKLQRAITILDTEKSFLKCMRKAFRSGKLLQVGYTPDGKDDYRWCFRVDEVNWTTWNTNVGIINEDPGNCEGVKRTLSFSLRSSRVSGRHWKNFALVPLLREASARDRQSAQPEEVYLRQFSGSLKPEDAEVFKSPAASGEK
Assay: Antagonist activity against capsaicin-activated human VR1 by FLIPR assay
READOUT_NAME: IC50 (nM)

Answered cases to consult:
structure_smiles=Cc1nc(-c2ncccc2C(F)(F)F)ccc1C(=O)Nc1ccc(C(F)(F)F)cc1 readout_name=IC50 quantitative_readout=259
structure_smiles=Cc1cc(C(=O)Nc2ccc(C(F)(F)F)cc2)ccc1-c1ncccc1C(F)(F)F readout_name=IC50 quantitative_readout=257

(P) CC(C)(C)c1ccc(NC(=O)c2ccc(-c3ncccc3NS(=O)(=O)Cc3ccccc3)cc2)cc1
(Q) CCN(CC)Cc1cccnc1-c1ccc(C(=O)Nc2ccc(C(C)(C)C)cc2)cc1
(R) C[C@@H]1CN(c2ncccc2C(F)(F)F)CCN1C(=O)Nc1ccc(C(F)(F)F)cc1
(S) CC(C)(C)c1ccc(NC(=O)c2ccc(-c3ncccc3F)cc2)cc1
Arrange the 4 entries by IC50 so the values rise. Reply with the item labels sorted in the order that was asked for. S, R, P, Q
